Target: Gal(b1-4)GlcNAc(b1-3)[Gal(b1-4)GlcNAc(b1-6)]GalNAc
Experiment: glycan array binding signal (z-score within array); higher = stronger binding
Conditions: glycan notation: IUPAC condensed, linker removed
About 410 targets per protein were measured; listed, in parts, are those with the strongest signals and a random draw of the rest.
readout.label: glycan array binding signal (z-score)
Answers are plain numbers.

Some entries whose results are on file:
Epa7 (Candida glabrata), Q6DTM6_CANGB (protein) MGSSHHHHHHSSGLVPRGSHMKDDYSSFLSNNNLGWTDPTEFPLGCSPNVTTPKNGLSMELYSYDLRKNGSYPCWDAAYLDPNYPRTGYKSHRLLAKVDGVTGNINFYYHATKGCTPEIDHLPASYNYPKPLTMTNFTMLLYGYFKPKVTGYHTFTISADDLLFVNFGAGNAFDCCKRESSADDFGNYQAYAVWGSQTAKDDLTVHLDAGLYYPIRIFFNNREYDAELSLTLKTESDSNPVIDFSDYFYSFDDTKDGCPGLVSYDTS ... 5.02
Epa15 (Candida glabrata) (protein) MGSSHHHHHHSSGLVPRGSHMASDPTTFPLGCSPEFTKTKKGLSMELYRYDYLPPGSYPCWDSAYLNPSYPRTGYKAKKLIATVDGVSGDINFKFNPKFGCKAIPDYLPSNFNYHEPITITNFTMILYGYFMPKTTAFHTFYVTADDLLFMNFGAGNAFDCCRREETADKFGNYAAYSVWGKKSLKNELTVYLHTGVYYPIRLFYNNRDYIAQLDIRFKTEHSNAIITNFTDYFYSVDDSSLGCPGLI ... 5.02

// next item, glycan array binding signal (z-score) requested
Problem: # glycan array binding signal (z-score) lookup, item NakA (Mycobacterium tuberculosum) (protein) SVVKPTKVTVFSPDGGADNPGEADLAIDGNPATSWKTDIYTDPVPFPSFKNGVGLMLQLPQATVVGTVAIDVASTGTKVEIRSASTPTPATLEDTAVLTSATALRPGHNTISVEAAAPTSNLLVWISTLGTTDGKSQADISEITIYAASD
Solution: -0.414
